# experimental target: PPAR-δ (Homo sapiens, UniProt Q03181)
# Construct: hPPARδ/LBD encoding amino acids 147-441; expressed in transfected cells; host or cells: HEK293T
# assay: GAL4-DBD/PPAR-LBD luciferase reporter agonist assay in HEK293T cells, PPAR-δ
# Format: cell-based
# experimental parameters: Table 10
Parameter EC50: see the listing below.

Known EC50 results, listed for orientation:
Cc1cc(C(=O)COc2ccc(C(=O)O)cc2)c(C)n1CCC1=CCCCC1 ... 7.49 µM
CCOc1cc(/C=C/C(=O)O)ccc1OCc1ccc(C(C)(C)C)cc1 ... 6.82 µM
COc1ccc(C(=O)/C=C/c2c(C)nn(-c3ccccc3)c2Cl)cc1CSCC(=O)O ... 8.24 µM
O=C(O)Cc1csc(SCc2cc(F)cc3c2OC(c2ccccc2)OC3)n1 (centres unmarked) ... 7.76 µM

Now for another entry.
q: Returns the measured EC50 for the input compound. Input: CC(C(=O)Nc1ccc(SC(F)F)cc1)N1CC=C(c2ccc(O)cc2)CC1 (centres unmarked)
a: 7.86 µM

###

# experimental target: PPAR-α (Homo sapiens)
# Construct: hPPARα/LBD encoding amino acids 175-468; expressed in transfected cells; host or cells: HEK293T
# Sequence (Q07869 175-468): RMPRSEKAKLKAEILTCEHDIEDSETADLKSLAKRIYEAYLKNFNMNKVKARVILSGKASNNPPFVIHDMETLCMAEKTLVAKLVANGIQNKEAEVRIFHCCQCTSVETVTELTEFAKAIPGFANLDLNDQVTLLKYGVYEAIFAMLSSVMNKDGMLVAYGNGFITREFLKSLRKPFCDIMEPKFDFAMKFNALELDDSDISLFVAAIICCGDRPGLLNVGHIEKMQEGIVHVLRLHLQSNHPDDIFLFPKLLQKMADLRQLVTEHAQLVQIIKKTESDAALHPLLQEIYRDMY
# assay: GAL4-DBD/PPAR-LBD luciferase reporter agonist assay in HEK293T cells, PPAR-α
# Format: cell-based
# experimental parameters: Table 10
# note: boundary value 6 µM maps to Not fulfilled; EC50 below it maps to Fulfilled

Please review the entries below; each comes with its answer.
O=C(O)Cc1csc(SCc2cc(F)cc3c2OC(c2ccccc2)OC3)n1 (stereo not shown) [GNF-1051] ... Not fulfilled
COc1ccc(C(=O)/C=C/c2c(C)nn(-c3ccccc3)c2Cl)cc1CSCC(=O)O [GNF-4909] ... Fulfilled
CCCOc1c(/C=C/C(=O)c2ccc(SCC(=O)O)c(OC)c2)cccc1OCC [GNF-1676] ... Not fulfilled
CCOc1cc(/C=C/C(=O)O)ccc1OCc1ccc(C(C)(C)C)cc1 [GNF-4516] ... Fulfilled
COc1cc(/C=C2/S/C(=N/c3ccccc3)NC2=O)ccc1OCc1cccc(C(=O)O)c1 [GNF-5758] ... Not fulfilled

q: In the record for Cc1cc(C(=O)COC(=O)c2ccc(O)cc2O)c(C)n1Cc1ccc(F)cc1 [GNF-9969] , is EC50 less than 6 µM?
a: Not fulfilled

q: Now the compound COCCCn1c(SCc2cccc(C(=O)O)c2)nc2sc3c(c2c1=O)CCCS3 [GNF-5154]
a: Not fulfilled

q: Now consider O=C(COc1ccc(C(=O)O)cc1)NC(c1ccccc1)c1ccc(Cl)cc1 (stereo not shown) [GNF-0248] .
a: Not fulfilled

q: Same read-out for Cc1cc(C(=O)COc2ccc(C(=O)O)cc2)c(C)n1CCC1=CCCCC1 [GNF-9057] ?
a: Fulfilled

q: Okay, and O=C(OCC(=O)c1ccc(O)cc1O)c1ccc(COc2ccc3ccccc3c2)o1 [GNF-6928] ?
a: Not fulfilled

###

# experimental target: PPAR-δ (Homo sapiens, UniProt Q03181)
# Construct: hPPARδ/LBD encoding amino acids 147-441; expressed in transfected cells; host or cells: HEK293T
# Sequence (Q03181 147-441): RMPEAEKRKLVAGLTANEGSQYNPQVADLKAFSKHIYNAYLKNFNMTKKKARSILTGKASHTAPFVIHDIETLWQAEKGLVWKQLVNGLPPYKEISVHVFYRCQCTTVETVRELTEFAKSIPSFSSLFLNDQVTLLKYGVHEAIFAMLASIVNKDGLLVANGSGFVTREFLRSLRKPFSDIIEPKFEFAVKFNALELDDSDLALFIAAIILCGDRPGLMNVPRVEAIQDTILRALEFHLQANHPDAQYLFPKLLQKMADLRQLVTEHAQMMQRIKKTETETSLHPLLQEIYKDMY
# assay: GAL4-DBD/PPAR-LBD luciferase reporter agonist assay in HEK293T cells, PPAR-δ
# Assay type: cell-based
# experimental parameters: Table 9
pEC50 reference
In simple prose, pEC50 is minus the logarithm base ten of a concentration in moles per litre.

CCc1cc(C(c2cccc(OC)c2)N2CCN(CCO)CC2)c(NC(=O)c2ccccc2)s1 (stereo not drawn) ... 7.89
O=C(NCc1ccc(COCC(F)(F)F)cc1)c1cc(-c2ccccc2)[nH]n1 ... 8.15
Cc1ccc(C(=O)Nc2cccc(CNCc3ccc(OC(F)(F)F)cc3)c2)cc1 ... 7.96
CCOc1cccc(/C=N/c2cccc(-c3csc(/N=C/c4cccc(OCC)c4O)n3)c2)c1O ... 8.10
Cc1ccc(-c2nc(SCCCC(=O)N3CCOCC3)[nH]c2-c2ccc(C)cc2)cc1 ... 7.92
COc1cc(CNCc2cc(C)on2)ccc1OCC(=O)Nc1ccc(Br)cc1 ... 7.72

# next molecule below
q: Given O=C(Nc1ccccc1O)C1CCN(C(=O)c2ccc(OCC3CCCO3)cc2)CC1 (stereo not drawn) , state its recorded pEC50.
a: 6.05
